System: MDA-MB-231
assayDetails: Induction of cell morphological changes in human MDA-MB-231 cells assessed as membrane blebbing by inverted microscopy
Type: functional, cell-based
Activity calls are given as the source filed them. No cut-off for these calls is given here.
measuredQuantity: Activity

compound: O=c1c(O)c(-c2ccc(O)cc2)oc2cc(O)cc(O)c12
assaySystem: MDA-MB-231
result: inactive

compound: Oc1cc(O)c2c(c1)O[C@H](c1cc(O)c(O)c(O)c1)[C@H](O)C2 [EPIGALLOCATECHIN]
assaySystem: MDA-MB-231
result: inactive

compound: O=c1c(O)c(-c2ccc(O)c(O)c2)oc2cc(O)cc(O)c12
assaySystem: MDA-MB-231
result: inactive

compound: Oc1c(Br)cc(Br)cc1-c1[nH]c(Br)c(Br)c1Br
assaySystem: MDA-MB-231
result: inactive
